target: TYK2 (Homo sapiens); assay: HEK-Blue IL-23 reporter assay (SEAP) for TYK2 pseudokinase inhibition; type: cell-based; set-up: HEK-Blue™ IL-23 and IFNα/β cells with a stably-integrated cytokine receptor and STAT3 or STAT1; host or cells: HEK-Blue IL-23 / HEK-Blue IFNα/β cells (HEK293 background); details: HEK-Blue IL-23 cells, 10 ng/mL human recombinant IL-23, SEAP reporter; read-out: IL23 IC50
Listing of entries alongside the reported IC50.

| molecule-smiles | IC50 |
| --- | --- |
| COc1cccc(-n2[nH]c(=O)c3cnc(Nc4ccc(F)cn4)cc32)c1 | < 10 µM |
| COc1cccc(-n2[nH]c(=O)c3cnc(NC(=O)C4CC4)cc32)c1 | < 10 µM |
| O=c1[nH]n(-c2cc(Cl)cc(Cl)c2)c2cc(Nc3ccc(F)cn3)ncc12 | > 90 µM |
| COc1cccc(-n2[nH]c(=O)c3cnc(Nc4cc(C)nc(C)n4)cc32)c1 | < 10 µM |
| Cc1cc(Nc2cc3c(cn2)c(=O)[nH]n3-c2ccccc2C)nc(C)n1 | < 10 µM |
| N#Cc1ccc(-n2[nH]c(=O)c3cnc(Nc4ccc(F)cn4)cc32)cc1Cl | < 10 µM |
| Cc1cc(Nc2cc3c(cn2)c(=O)[nH]n3-c2ccc(C#N)c(F)c2)nc(C)n1 | < 10 µM |
| Cc1cc(Nc2cc3c(cn2)c(=O)[nH]n3-c2cccc(Cl)c2)nc(C)n1 | < 10 µM |
| COc1cccc(-n2[nH]c(=O)c3cnc(Nc4ccnc(OC)n4)cc32)c1 | > 90 µM |
| COc1cccc(-n2[nH]c(=O)c3cnc(Nc4cc(OC)ccn4)cc32)c1 | 10 to 30 µM |
| Cn1ccc(Nc2cc3c(cn2)c(=O)[nH]n3-c2ccccc2)n1 | < 10 µM |
| CC(C)(C)OC(=O)Nc1cc2c(cn1)c(=O)[nH]n2-c1ccccc1 | > 90 µM |
| Cc1cc(Nc2cc3c(cn2)c(=O)[nH]n3-c2ccc(C(N)=O)cc2)nc(C)n1 | > 90 µM |
| Cc1cc(Nc2cc3c(cn2)c(=O)[nH]n3-c2ccc(C(F)(F)F)cc2)nc(C)n1 | < 10 µM |
| Cc1cc(Nc2cc3c(cn2)c(=O)[nH]n3-c2cccc(-c3ncn(C)n3)c2)nc(C)n1 | < 10 µM |
| COc1cccc(-n2[nH]c(=O)c3cnc(Nc4ccnc(C)n4)cc32)c1 | < 10 µM |
| COc1cccc(-n2[nH]c(=O)c3cnc(Nc4cccnn4)cc32)c1 | < 10 µM |

----------
target: TYK2 (Homo sapiens, UniProt P29597); test: HEK-Blue IFNα/β reporter assay (SEAP) for TYK2 pseudokinase inhibition; type: cell-based; settings: HEK-Blue IFNα/β cells, 1 ng/mL human recombinant IFNα
Sequence (P29597 whole entry): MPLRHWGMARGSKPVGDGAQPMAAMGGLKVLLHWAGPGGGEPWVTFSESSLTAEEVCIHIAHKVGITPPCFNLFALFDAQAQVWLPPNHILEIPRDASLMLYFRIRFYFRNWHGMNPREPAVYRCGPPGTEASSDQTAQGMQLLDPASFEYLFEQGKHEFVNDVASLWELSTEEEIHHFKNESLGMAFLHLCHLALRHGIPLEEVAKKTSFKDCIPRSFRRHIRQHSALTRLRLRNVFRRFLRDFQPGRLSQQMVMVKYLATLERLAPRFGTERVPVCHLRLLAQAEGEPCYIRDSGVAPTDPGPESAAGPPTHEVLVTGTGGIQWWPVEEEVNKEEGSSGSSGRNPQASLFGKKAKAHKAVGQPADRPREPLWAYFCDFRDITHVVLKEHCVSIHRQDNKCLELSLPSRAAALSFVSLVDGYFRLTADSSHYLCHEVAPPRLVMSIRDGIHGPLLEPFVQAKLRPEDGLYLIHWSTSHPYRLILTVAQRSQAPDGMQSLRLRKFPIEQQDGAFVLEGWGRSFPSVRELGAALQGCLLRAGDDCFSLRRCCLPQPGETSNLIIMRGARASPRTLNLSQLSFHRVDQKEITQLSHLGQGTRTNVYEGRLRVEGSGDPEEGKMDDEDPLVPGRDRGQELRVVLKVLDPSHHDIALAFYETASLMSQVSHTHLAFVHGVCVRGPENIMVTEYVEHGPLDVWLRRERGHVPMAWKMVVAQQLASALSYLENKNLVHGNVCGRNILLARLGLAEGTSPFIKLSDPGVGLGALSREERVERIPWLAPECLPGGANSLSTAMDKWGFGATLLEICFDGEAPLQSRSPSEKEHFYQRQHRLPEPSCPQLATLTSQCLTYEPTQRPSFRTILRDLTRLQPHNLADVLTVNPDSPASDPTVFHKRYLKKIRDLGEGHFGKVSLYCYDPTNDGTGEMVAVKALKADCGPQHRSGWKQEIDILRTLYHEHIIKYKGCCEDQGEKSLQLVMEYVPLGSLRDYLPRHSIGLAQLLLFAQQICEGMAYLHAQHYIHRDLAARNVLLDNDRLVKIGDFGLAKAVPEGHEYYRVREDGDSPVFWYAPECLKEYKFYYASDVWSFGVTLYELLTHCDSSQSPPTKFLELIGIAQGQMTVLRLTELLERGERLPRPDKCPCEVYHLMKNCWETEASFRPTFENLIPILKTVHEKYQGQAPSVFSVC
measure: IC50

| molecule-smiles | target | measure | result |
| --- | --- | --- | --- |
| Cc1ccccc1-n1[nH]c(=O)c2cnc(NC(=O)C3CC3)cc21 | TYK2 (Homo sapiens, UniProt P29597) | IC50 | < 10 µM |
| Cc1cc(Nc2cc3c(cn2)c(=O)[nH]n3-c2cccc(OC(F)(F)F)c2)nc(C)n1 | TYK2 (Homo sapiens, UniProt P29597) | IC50 | < 10 µM |
| COc1cccc(-n2[nH]c(=O)c3cnc(Nc4cc(OC)ccn4)cc32)c1 | TYK2 (Homo sapiens, UniProt P29597) | IC50 | > 90 µM |
| COc1cc(-n2[nH]c(=O)c3cnc(Nc4ccc(F)cn4)cc32)ccc1F | TYK2 (Homo sapiens, UniProt P29597) | IC50 | < 10 µM |

----------
target: TYK2 (Homo sapiens); assay: HEK-Blue IFNα/β reporter assay (SEAP) for TYK2 pseudokinase inhibition; type: cell-based; settings: HEK-Blue IFNα/β cells, 1 ng/mL human recombinant IFNα

| molecule | IC50 |
| --- | --- |
| COc1cccc(-n2[nH]c(=O)c3cnc(Nc4ccnc(C)n4)cc32)c1 [Compound I-49] | < 10 µM |
| COc1cc(-n2[nH]c(=O)c3cnc(Nc4ccc(F)cn4)cc32)ccn1 [Compound I-84] | < 10 µM |
| O=C(Nc1cc2c(cn1)c(=O)[nH]n2-c1ccccc1)c1ccccn1 [Compound I-9] | > 90 µM |
| O=c1[nH]n(-c2ccc(OC(F)(F)F)cc2)c2cc(Nc3ccc(F)cn3)ncc12 [Compound I-70] | < 10 µM |

----------
Listing of entries alongside the reported IC50.
target: JAK2-JH1 (Homo sapiens); construct: recombinant purified His or GST-tagged catalytic domain for each enzyme; assay: HTRF-based selectivity assay, JAK2 catalytic domain; details: kinase domain (JH1), ATP 14.7 μM
Sequence (O60674 849-1124 limits assumed): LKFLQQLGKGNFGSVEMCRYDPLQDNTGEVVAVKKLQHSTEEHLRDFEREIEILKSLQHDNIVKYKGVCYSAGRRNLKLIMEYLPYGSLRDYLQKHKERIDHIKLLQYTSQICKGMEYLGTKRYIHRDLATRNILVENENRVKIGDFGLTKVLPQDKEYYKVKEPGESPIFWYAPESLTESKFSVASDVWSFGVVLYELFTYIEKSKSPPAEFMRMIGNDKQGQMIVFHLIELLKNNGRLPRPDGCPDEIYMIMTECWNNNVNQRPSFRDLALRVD

| molecule-smiles | IC50 |
| --- | --- |
| Cc1cc(Nc2cc3c(cn2)c(=O)[nH]n3-c2ccc(OC(F)F)cc2)nc(C)n1 | > 90 µM |
| O=c1[nH]n(-c2ccc(OC(F)(F)F)c(F)c2)c2cc(Nc3ccc(F)cn3)ncc12 | > 90 µM |
| N#Cc1ccc(-n2[nH]c(=O)c3cnc(Nc4ccc(F)cn4)cc32)cc1Cl | > 90 µM |
| Cc1cc(Nc2cc3c(cn2)c(=O)[nH]n3-c2ccccc2)nc(C)n1 | < 10 µM |
| O=c1[nH]n(-c2ccccc2)c2cc(Nc3ccc(F)cn3)ncc12 | 10 to 30 µM |
| Cc1cc(Nc2cc3c(cn2)c(=O)[nH]n3-c2ccc(OC(F)(F)F)cc2)nc(C)n1 | > 90 µM |

----------
Listing of entries alongside the reported pIC50.
target: JAK3-JH1 (Homo sapiens, UniProt P52333); construct: recombinant purified His or GST-tagged catalytic domain for each enzyme; test: HTRF-based selectivity assay, JAK3 catalytic domain; conditions: kinase domain (JH1), ATP 2.12 μM
Sequence (P52333 822-1111 limits assumed): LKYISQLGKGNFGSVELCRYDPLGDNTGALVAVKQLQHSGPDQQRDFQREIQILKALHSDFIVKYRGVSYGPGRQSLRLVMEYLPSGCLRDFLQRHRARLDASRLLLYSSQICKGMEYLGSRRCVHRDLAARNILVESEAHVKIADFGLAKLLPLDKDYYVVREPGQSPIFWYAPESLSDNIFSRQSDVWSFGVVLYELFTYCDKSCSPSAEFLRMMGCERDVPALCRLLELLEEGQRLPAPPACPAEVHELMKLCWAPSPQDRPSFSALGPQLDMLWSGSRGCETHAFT
pIC50: −log10 of the molar value.
measure: pIC50

| molecule-smiles | target | result |
| --- | --- | --- |
| O=c1[nH]n(-c2ccccc2)c2cc(Nc3ccc(F)cn3)ncc12 | JAK3-JH1 (Homo sapiens, UniProt P52333) | > 5.00 |
| COc1cccc(-n2[nH]c(=O)c3cnc(Nc4ccnc(C)n4)cc32)c1 | JAK3-JH1 (Homo sapiens, UniProt P52333) | < 4.05 |
| Cc1cc(Nc2cc3c(cn2)c(=O)[nH]n3-c2ccc(OCC(F)(F)F)cc2)nc(C)n1 | JAK3-JH1 (Homo sapiens, UniProt P52333) | < 4.05 |
| COc1cccc(-n2[nH]c(=O)c3cnc(Nc4cc(C)nc(C)n4)cc32)c1F | JAK3-JH1 (Homo sapiens, UniProt P52333) | < 4.05 |
| Cc1cc(Nc2cc3c(cn2)c(=O)[nH]n3-c2ccc(OC(F)(F)F)c(F)c2)nc(C)n1 | JAK3-JH1 (Homo sapiens, UniProt P52333) | < 4.05 |
| N#Cc1ccc(-n2[nH]c(=O)c3cnc(Nc4ccc(F)cn4)cc32)cc1Cl | JAK3-JH1 (Homo sapiens, UniProt P52333) | < 4.05 |
| Cc1cc(Nc2cc3c(cn2)c(=O)[nH]n3-c2ccc(OC(F)F)cc2)nc(C)n1 | JAK3-JH1 (Homo sapiens, UniProt P52333) | < 4.05 |
| Cc1cc(Nc2cc3c(cn2)c(=O)[nH]n3-c2ccc(Cl)cc2)nc(C)n1 | JAK3-JH1 (Homo sapiens, UniProt P52333) | < 4.05 |
| Cc1cc(Nc2cc3c(cn2)c(=O)[nH]n3-c2ccc(OC(F)(F)F)cc2)nc(C)n1 | JAK3-JH1 (Homo sapiens, UniProt P52333) | < 4.05 |
| Cc1cc(Nc2cc3c(cn2)c(=O)[nH]n3-c2cccc(F)c2)nc(C)n1 | JAK3-JH1 (Homo sapiens, UniProt P52333) | < 4.05 |
| O=C(Nc1cc2c(cn1)c(=O)[nH]n2-c1ccccc1)C1CC1 | JAK3-JH1 (Homo sapiens, UniProt P52333) | 4.52 to 5.00 |
| Cc1cc(Nc2cc3c(cn2)c(=O)[nH]n3-c2ccccc2)nc(C)n1 | JAK3-JH1 (Homo sapiens, UniProt P52333) | > 5.00 |
| COc1cccc(-n2[nH]c(=O)c3cnc(Nc4cc(C)nc(C)n4)cc32)c1 | JAK3-JH1 (Homo sapiens, UniProt P52333) | 4.52 to 5.00 |
| O=c1[nH]n(-c2ccc(OC(F)(F)F)c(F)c2)c2cc(Nc3ccc(F)cn3)ncc12 | JAK3-JH1 (Homo sapiens, UniProt P52333) | < 4.05 |

----------
target: TYK2 (Homo sapiens, UniProt P29597); assay: HEK-Blue IL-23 reporter assay (SEAP) for TYK2 pseudokinase inhibition; format: cell-based; parameters: HEK-Blue™ IL-23 and IFNα/β cells with a stably-integrated cytokine receptor and STAT3 or STAT1; host or cells: HEK-Blue IL-23 / HEK-Blue IFNα/β cells (HEK293 background); details: HEK-Blue IL-23 cells, 10 ng/mL human recombinant IL-23, SEAP reporter; read-out: IL23 IC50
pIC50: −log10 of the molar value.
measure: pIC50

| compound | measure | result |
| --- | --- | --- |
| O=c1[nH]n(-c2ccc(Cl)c(Cl)c2)c2cc(Nc3ccc(F)cn3)ncc12 [Compound I-86] | pIC50 | < 4.05 |
| N#Cc1ccc(-n2[nH]c(=O)c3cnc(NC(=O)C4CC4)cc32)cc1C(F)(F)F [Compound I-93] | pIC50 | > 5.00 |
| COc1cc(-n2[nH]c(=O)c3cnc(NC(=O)C4CC4)cc32)ccc1C#N [Compound I-82] | pIC50 | > 5.00 |
| COc1cc(-n2[nH]c(=O)c3cnc(Nc4cc(C)nc(C)n4)cc32)ccc1C#N [Compound I-80] | pIC50 | > 5.00 |
